The reported numbers originate from patent US20230339970A1.

Overview of recorded pIC50 for various molecules
target: human recombinant GST cleaved CSNK1D (Homo sapiens, UniProt P48730); construct: GST (cleaved yes); assay: Purified Enzyme Assay (ADP-Glo CSNK1D Kinase Assay); conditions: 2 nM CSNK1D; peptide substrate 150 μM; ATP 20 μM; 45 minutes at room temperature
Sequence (P48730 whole entry): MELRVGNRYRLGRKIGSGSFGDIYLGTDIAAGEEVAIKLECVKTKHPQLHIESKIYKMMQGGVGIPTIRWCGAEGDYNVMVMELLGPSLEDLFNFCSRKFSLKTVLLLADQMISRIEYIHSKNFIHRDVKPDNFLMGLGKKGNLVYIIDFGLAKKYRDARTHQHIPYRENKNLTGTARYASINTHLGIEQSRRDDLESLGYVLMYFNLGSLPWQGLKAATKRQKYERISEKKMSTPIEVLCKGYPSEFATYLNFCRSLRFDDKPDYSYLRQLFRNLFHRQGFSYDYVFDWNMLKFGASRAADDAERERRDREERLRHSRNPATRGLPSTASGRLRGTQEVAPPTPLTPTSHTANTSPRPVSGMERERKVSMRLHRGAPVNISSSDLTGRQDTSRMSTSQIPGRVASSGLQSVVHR
When answering, recall that pIC50 equals minus log10 of the concentration in mol/L, and write that number alone.

Previously resolved entries follow.
Challenge: Using the record for [2H]C([2H])([2H])[C@]1(C(F)(F)F)Cn2nc(-c3ccc(F)cn3)c(-c3cc(C)nc4[nH]nc(C)c34)c2CO1 (single isomer, unassigned) [Example 428] , report its pIC50.
Response given: 8.05

Challenge: Moving on to Fc1ccc(-c2nn3c(c2-c2ccnc4[nH]ncc24)C2CC2C3)nc1 (racemic) [Example 23]
Response given: 8.52

Challenge: Moving on to C[C@@]1(CF)CCc2c(-c3ccnc4[nH]nc(Cl)c34)c(-c3ccc(F)cn3)nn2C1 (single isomer, unassigned) [Example 291]
Response given: 8.30

Attention now shifts to the item below.
Challenge: Using the record for CC1(C)Cn2nc(-c3ccc(F)cn3)c(-c3c(F)cnc4[nH]ncc34)c2CO1 [Example 389] , report its pIC50.
Response given: 8.30

---

target: human recombinant GST cleaved CSNK1D (Homo sapiens, UniProt P48730); construct: GST (cleaved yes); assay: Purified Enzyme Assay (ADP-Glo CSNK1D Kinase Assay); conditions: 2 nM CSNK1D; peptide substrate 150 μM; ATP 20 μM; 45 minutes at room temperature
Overview of recorded pIC50 for various molecules
When answering, recall that pIC50 equals minus log10 of the concentration in mol/L, and write that number alone.

Challenge: Using the record for Cc1n[nH]c2nccc(-c3c(-c4ccc(F)cn4)nn4c3COC(C)(C)C4)c12 [Example 160] , report its pIC50.
Response given: 8.05

Challenge: Moving on to [2H]C([2H])([2H])[C@@]1(C(F)(F)F)Cn2nc(-c3ccc(F)cn3)c(-c3ccnc4[nH]ncc34)c2CO1 (single isomer, unassigned) [Example 424]
Response given: 8.40

Challenge: Moving on to CC(C)[C@H]1Cn2nc(-c3ccc(F)cn3)c(-c3ccnc4[nH]ncc34)c2CO1 (single isomer, unassigned) [Example 98]
Response given: 7.51

Challenge: Moving on to Fc1ccc(-c2nn3c(c2-c2ccnc4[nH]ncc24)CCC(F)(COC(F)F)C3)nc1 (single isomer, unassigned) [Example 314]
Response given: 8.40

Challenge: Moving on to Cc1cc(-c2c(-c3ccc(F)cn3)nn3c2COC(C)(C)C3)c2c(C)n[nH]c2n1 [Example 156]
Response given: 8.30

Challenge: Moving on to Cc1cc(-c2c(-c3ccc(F)cn3)nn3c2C2CC2C3)c2cn[nH]c2n1 (racemic) [Example 24]
Response given: 8.40

Challenge: Moving on to CC1(C)Cn2nc(-c3ncc(F)cc3F)c(-c3ccnc4[nH]ncc34)c2CO1 [Example 166]
Response given: 8.15

Challenge: Moving on to CC1(C)CCc2c(-c3c(F)cnc4[nH]ncc34)c(-c3ccc(F)cn3)nn2C1 [Example 282]
Response given: 8.05

New cases:
Challenge: Using the record for CC1(C)Cn2nc(-c3ccc(F)cn3)c(-c3c(F)cnc4[nH]nc(Cl)c34)c2CO1 [Example 392] , report its pIC50.
Response given: 8.15

Challenge: Moving on to Cc1cc(-c2c(-c3ccc(F)cn3)nn3c2C[C@@]2(C3)CC2(F)F)c2cn[nH]c2n1 (single isomer, unassigned) [Example 260]
Response given: 8.52

Challenge: Moving on to Fc1ccc(-c2nn3c(c2-c2ccnc4[nH]nc(Cl)c24)OCC2(CC2)C3)nc1 [Example 458]
Response given: 9.00

Challenge: Moving on to C[C@@]1(CF)CCc2c(-c3ccncc3)c(-c3ccc(F)cn3)nn2C1 (single isomer, unassigned) [Example 285]
Response given: 7.96

Challenge: Moving on to Cc1nc2[nH]nc(Cl)c2c(-c2c(-c3ccc(F)cn3)nn3c2CCC3)c1F [Example 224]
Response given: 8.40

Challenge: Moving on to CC1n2nc(-c3ccc(F)cn3)c(-c3ccnc4[nH]ncc34)c2COC1(C)C (single isomer, unassigned) [Example 174]
Response given: 8.10

Challenge: Moving on to CC1(C)Cn2nc(-c3ccc(F)cn3)c(-c3cc(C(F)F)nc4[nH]ncc34)c2CO1 [Example 390]
Response given: 8.22

---

Overview of recorded log10 IC50 for various compounds
target: human recombinant GST cleaved CSNK1D (Homo sapiens, UniProt P48730); construct: GST (cleaved yes); test: Purified Enzyme Assay (ADP-Glo CSNK1D Kinase Assay); conditions: 2 nM CSNK1D; peptide substrate 150 μM; ATP 20 μM; 45 minutes at room temperature
A difference of one corresponds to tenfold IC50; all values are log10 with IC50 in nM.

Previously resolved entries follow.
Challenge: Using the record for Cc1cc(-c2c(-c3ccc(F)cc3)nn3c2CC(C)(C)C3)c2cn[nH]c2n1 [Example 232] , report its log10 IC50.
Response given: 0.00

Challenge: Moving on to CCC(=O)Nc1cc(-c2c(-c3ccc(F)cn3)nn3c2COC(C)(C)C3)ccn1 [Example 131]
Response given: 0.48

Challenge: Moving on to Fc1ccc(-c2nn3c(c2-c2c(F)cnc4[nH]ncc24)CC[C@@]2(C3)CC2(F)F)nc1 (single isomer, unassigned) [Example 329]
Response given: 1.36

Challenge: Moving on to Fc1ccc(-c2nn3c(c2-c2ccnc4[nH]ncc24)COCC3)nc1 [Example 78]
Response given: 1.18

Challenge: Moving on to Cc1cc(-c2c(-c3ccc(F)cn3)nn3c2CC(F)C3)c2cn[nH]c2n1 (stereo not shown) [Example 13]
Response given: 1.46

Challenge: Moving on to CC1COCc2c(-c3ccnc(CO)c3)c(-c3ccc(F)cc3)nn21 (stereo not shown) [Example 90]
Response given: 1.20

New cases:
Challenge: Using the record for COc1ccc2nccc(-c3c(-c4ccc(F)cn4)nn4c3CC[C@@H]4C)c2n1 [Example 22] , report its log10 IC50.
Response given: 1.36

Challenge: Moving on to CC(=O)Nc1cc(-c2c(-c3ccc(F)cc3)nn3c2C[C@H](F)C3)ccn1 [Example 229]
Response given: 0.00

Challenge: Moving on to CC1(C)Cn2nc(-c3ccc(F)cn3)c(-c3ccn4ncc(N)c4c3)c2CO1 [Example 381]
Response given: 1.81

Challenge: Moving on to CC1(C)Cc2c(-c3ccnc4[nH]ncc34)c(-c3ccc(F)cc3)nn2C1 [Example 231]
Response given: 0.00

Challenge: Moving on to CC1COc2c(-c3ccnc4ccsc34)c(-c3ccc(F)cn3)nn2C1 (stereo not shown) [Example 195]
Response given: 1.32

Challenge: Moving on to CC1(C)Cn2nc(-c3ccc(F)cn3)c(-c3ccn4nccc4n3)c2CO1 [Example 387]
Response given: 1.48

---

target: human recombinant GST cleaved CSNK1D (Homo sapiens, UniProt P48730); construct: GST (cleaved yes); assay: Purified Enzyme Assay (ADP-Glo CSNK1D Kinase Assay); conditions: 2 nM CSNK1D; peptide substrate 150 μM; ATP 20 μM; 45 minutes at room temperature
Returns: string. Value is Y if measured IC50 is below 4 nM, and N if it is greater than or equal to it.

The examples below pair each entry with its known result.
Challenge: Strictly below 4 nM: is that where IC50 of Fc1ccc(-c2nn3c(c2-c2ccnc4[nH]ncc24)OCC2(CC2)C3)cc1 sits?
Response given: Y

Challenge: Moving on to COCC1(C)CCc2c(-c3cc(C)nc4[nH]ncc34)c(-c3ccc(F)cn3)nn2C1 (single isomer, unassigned)
Response given: Y

Challenge: Moving on to [2H]C([2H])([2H])C1(C([2H])([2H])[2H])Cn2nc(-c3ccc(F)cn3)c(-c3c(F)c(C)nc4[nH]ncc34)c2CO1
Response given: Y

New cases:
Challenge: Strictly below 4 nM: is that where IC50 of CC1(C)Cn2nc(-c3ccc(F)cn3)c(-c3ccn4ncnc4c3)c2CO1 sits?
Response given: N

Challenge: Moving on to CC1(C)Cc2c(-c3c(F)cnc4[nH]ncc34)c(-c3ccc(F)cn3)nn2C1
Response given: Y

Challenge: Moving on to Cc1cc(-c2c(-c3ccc(F)cn3)nn3c2OC(C)(C)C3)c2cn[nH]c2n1
Response given: N

---

biological target: human recombinant GST cleaved CSNK1D (Homo sapiens, UniProt P48730); construct: GST (cleaved yes); assay: Purified Enzyme Assay (ADP-Glo CSNK1D Kinase Assay); conditions: 2 nM CSNK1D; peptide substrate 150 μM; ATP 20 μM; 45 minutes at room temperature
Measured metric: pIC50
When answering, recall that pIC50 equals minus log10 of the concentration in mol/L, and write that number alone.

Challenge: Using the record for Fc1ccc(-c2nn3c(c2-c2ccnc4[nH]ncc24)[C@@H]2CC[C@H]3C2)nc1 (single isomer, unassigned) , report its pIC50.
Response given: 8.22

New cases:
Challenge: Using the record for C[C@@H]1OCc2c(-c3ccnc4[nH]ncc34)c(-c3ccc(F)cc3)nn2[C@H]1C (single isomer, unassigned) , report its pIC50.
Response given: 8.22

Challenge: Moving on to CC1(C)Cc2c(-c3ccnc4[nH]nc(Cl)c34)c(-c3ccc(F)cn3)nn2C1
Response given: 8.40

Challenge: Moving on to Fc1ccc(-c2nn3c(c2-c2ccnc4[nH]ncc24)CO[C@@H](C2CC2)C3)nc1 (single isomer, unassigned)
Response given: 7.82

Challenge: Moving on to CC1(C)Cn2nc(-c3ccc(F)cn3)c(-c3cc(C4CC4)nc4[nH]ncc34)c2CO1
Response given: 8.10

Challenge: Moving on to Fc1ccc(-c2nn3c(c2-c2ccnc4cn[nH]c24)OCC(F)(F)C3)cc1
Response given: 7.60

Challenge: Moving on to C[C@@H]1CCc2c(-c3ccnc4[nH]ncc34)c(-c3ccc(F)cc3)nn21
Response given: 8.40
